Organism: Rattus norvegicus
Assay: Open TG-GATES - Regimen: Daily Repeat
Type: toxicity, organism-based, Sprague-Dawley
Design: regimen Daily Repeat, gender Male, age 6 weeks
Details: in vivo, po, 1000 mg/kg, […], tissue Plasma, route gavage, dose level High, time 7 day
Can you tell me TP for the items I'm about to list?
Give bare numbers, in g/dL.

Study these solved cases before continuing.
Enquiry: Which TP is reported for this compound? O=C(O)c1cccnc1 [NIACIN]
Return: 5.6

Enquiry: Follow-up item: CC(C)(S)[C@@H](N)C(=O)O [PENICILLAMINE]
Return: 5.9

Enquiry: Also need O=C(N[C@H](CO)[C@H](O)c1ccc([N+](=O)[O-])cc1)C(Cl)Cl [CHLORAMPHENICOL] , thanks.
Return: 5.8

In the following, a different compound is considered.
Enquiry: What measured TP goes with CCN1CCCC1CNC(=O)c1cc(S(N)(=O)=O)ccc1OC (centres undefined) [SULPIRIDE] ?
Return: 5.7

----------
Kindly supply the reported Ret values for the records listed here.
Organism: Rattus norvegicus
Assay: Open TG-GATES - Regimen: Daily Repeat
Format: toxicity, organism-based, Sprague-Dawley
Parameters: regimen Daily Repeat, gender Male, age 6 weeks
Conditions: in vivo, po, 100 mg/kg, […], tissue Blood, route gavage, dose level Low, time 7 day
One number for each entry, in %.

Worked cases, Ret given:
Enquiry: I have this compound here, `O=C(N[C@H](CO)[C@H](O)c1ccc([N+](=O)[O-])cc1)C(Cl)Cl` , and I need its recorded Ret.
Return: 6

Enquiry: Next compound: CCN1CCCC1CNC(=O)c1cc(S(N)(=O)=O)ccc1OC (centres undefined) [SULPIRIDE]
Return: 5.3

Enquiry: Ok, now `CC(C)(S)[C@@H](N)C(=O)O`
Return: 5.7

Next compound, Ret to be filled in.
Enquiry: Given the compound `O=C(O)c1cccnc1` , what is its reported Ret?
Return: 5.9

----------
Species on record: Rattus norvegicus
Assay: Open TG-GATES - Regimen: Daily Repeat
Format: toxicity, organism-based, Sprague-Dawley
Set-up: regimen Daily Repeat, gender Male, age 6 weeks
Conditions: in vivo, po, 100 mg/kg, […], tissue Plasma, route gavage, dose level Low, time 7 day
measurement_label: Cl (meq/L)
Answers are plain numbers, in meq/L.

Items follow; give Cl for each.
1. CCN1CCCC1CNC(=O)c1cc(S(N)(=O)=O)ccc1OC (centres undefined) [SULPIRIDE]
2. O=C(O)c1cccnc1
3. CC(C)(S)[C@@H](N)C(=O)O

Return:
[105.6, 104.8, 104.2]

Enquiry: # get_value(readout='Cl', item= `O=C(N[C@H](CO)[C@H](O)c1ccc([N+](=O)[O-])cc1)C(Cl)Cl` )
Return: 106.2

----------
Species: Rattus norvegicus
Assay: Open TG-GATES - Regimen: Daily Repeat
Format: toxicity, organism-based, Sprague-Dawley
Set-up: regimen Daily Repeat, gender Male, age 6 weeks
Conditions: in vivo, po, 1000 mg/kg, […], tissue Plasma, route gavage, dose level High, time 7 day
Exercise: state measured LDH for each of the compounds provided.
Numbers only, in IU/L.

Worked examples, 2 compounds total:
Enquiry: Form field: reported LDH of `O=C(N[C@H](CO)[C@H](O)c1ccc([N+](=O)[O-])cc1)C(Cl)Cl`
Return: 92.8

Enquiry: Another compound: CCN1CCCC1CNC(=O)c1cc(S(N)(=O)=O)ccc1OC (centres undefined) [SULPIRIDE]
Return: 62

Please give LDH, item by item, for the list that follows.
1. CC(C)(S)[C@@H](N)C(=O)O
2. O=C(O)c1cccnc1

Return:
1: 72.4; 2: 137.2
